Biological target: T1, wild type full length EGFR purified from A431 cells (human, UniProt P00533 25-1210)
T1 construct: mature; Bought; coated on ELISA wells; also called full length EGFR receptor antigen; Sigma E3641
Assay: competition ELISA, competitor Ab-5
Set-up: concentration or dose not given beside the values
metric: % inhibition
Returns: string containing the numeric result and its unit.

Data request, read-out % inhibition, for antibody 1344 (antibody, human IgG1, kappa, V domains shown, Chimeric IgG1 kappa) VH: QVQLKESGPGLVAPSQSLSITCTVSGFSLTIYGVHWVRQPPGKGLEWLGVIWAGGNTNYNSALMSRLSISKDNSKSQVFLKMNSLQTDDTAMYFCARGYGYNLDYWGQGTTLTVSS VL: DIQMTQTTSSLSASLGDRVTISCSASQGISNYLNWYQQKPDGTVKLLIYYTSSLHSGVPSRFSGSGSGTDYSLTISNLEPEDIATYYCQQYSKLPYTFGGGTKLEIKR
28%

Next: antibody 1320 (antibody, human IgG1, kappa, V domains shown, Chimeric IgG1 kappa) VH: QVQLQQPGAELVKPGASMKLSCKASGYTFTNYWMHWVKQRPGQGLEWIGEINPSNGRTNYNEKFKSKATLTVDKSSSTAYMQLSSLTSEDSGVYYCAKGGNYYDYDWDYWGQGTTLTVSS VL: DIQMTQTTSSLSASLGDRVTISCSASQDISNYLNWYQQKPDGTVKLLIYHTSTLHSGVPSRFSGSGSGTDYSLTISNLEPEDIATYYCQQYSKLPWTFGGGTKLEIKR
6%

Next: antibody 1260 (antibody, human IgG1, kappa, V domains shown, Chimeric IgG1 kappa) VH: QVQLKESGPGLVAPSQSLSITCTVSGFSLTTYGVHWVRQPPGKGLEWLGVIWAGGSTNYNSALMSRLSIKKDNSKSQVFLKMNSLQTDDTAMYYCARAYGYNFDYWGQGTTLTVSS VL: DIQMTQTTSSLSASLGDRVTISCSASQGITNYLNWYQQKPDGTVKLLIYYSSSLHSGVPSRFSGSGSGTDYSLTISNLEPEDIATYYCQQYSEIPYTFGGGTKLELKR
17%

Next: antibody 992 (antibody, human IgG1, kappa, V domains shown, Chimeric mouse/human IgG1 kappa; the VL entry includes the human kappa constant region) VH: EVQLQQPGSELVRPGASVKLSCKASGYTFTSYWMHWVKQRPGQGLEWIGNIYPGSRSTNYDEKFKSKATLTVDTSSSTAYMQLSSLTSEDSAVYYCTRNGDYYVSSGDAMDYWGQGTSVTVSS VL: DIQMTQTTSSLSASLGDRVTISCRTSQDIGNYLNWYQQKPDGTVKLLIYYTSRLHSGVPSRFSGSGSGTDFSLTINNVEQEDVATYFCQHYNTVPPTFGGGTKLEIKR
-3%

Next: antibody 1308 (antibody, human IgG1, kappa, V domains shown, Chimeric IgG1 kappa) VH: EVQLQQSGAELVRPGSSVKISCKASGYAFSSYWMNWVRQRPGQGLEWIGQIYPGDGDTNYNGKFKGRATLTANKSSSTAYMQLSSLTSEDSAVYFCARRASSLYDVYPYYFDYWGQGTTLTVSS VL: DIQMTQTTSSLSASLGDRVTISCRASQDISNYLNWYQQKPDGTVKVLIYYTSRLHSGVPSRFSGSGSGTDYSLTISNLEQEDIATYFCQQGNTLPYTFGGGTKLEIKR
0%

Next: antibody 1261 (antibody, human IgG1, kappa, V domains shown, Chimeric IgG1 kappa) VH: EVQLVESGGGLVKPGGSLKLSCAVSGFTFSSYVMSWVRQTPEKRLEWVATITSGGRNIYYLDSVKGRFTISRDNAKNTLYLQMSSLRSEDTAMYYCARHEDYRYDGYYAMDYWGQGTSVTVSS VL: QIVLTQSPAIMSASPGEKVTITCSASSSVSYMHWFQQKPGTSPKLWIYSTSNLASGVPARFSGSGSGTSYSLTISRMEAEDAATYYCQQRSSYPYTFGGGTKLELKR
6%

Next: antibody 1030 (antibody, human IgG1, kappa, V domains shown, Chimeric IgG1 kappa) VH: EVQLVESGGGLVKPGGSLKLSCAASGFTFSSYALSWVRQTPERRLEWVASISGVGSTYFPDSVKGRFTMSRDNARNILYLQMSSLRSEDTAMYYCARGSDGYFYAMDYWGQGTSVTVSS VL: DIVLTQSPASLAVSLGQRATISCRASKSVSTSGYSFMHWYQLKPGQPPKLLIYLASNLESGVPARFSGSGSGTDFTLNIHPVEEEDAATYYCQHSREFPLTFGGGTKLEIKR
92%

Next: antibody 1024 (antibody, human IgG1, kappa, V domains shown, Chimeric IgG1 kappa) VH: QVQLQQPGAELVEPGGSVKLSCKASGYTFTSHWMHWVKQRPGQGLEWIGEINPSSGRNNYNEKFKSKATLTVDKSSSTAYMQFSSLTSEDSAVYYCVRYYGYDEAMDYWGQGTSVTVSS VL: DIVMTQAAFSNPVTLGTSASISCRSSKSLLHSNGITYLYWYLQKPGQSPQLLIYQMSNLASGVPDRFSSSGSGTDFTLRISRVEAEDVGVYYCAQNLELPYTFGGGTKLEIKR
12%

Next: antibody 1257 (antibody, human IgG1, kappa, V domains shown, Chimeric IgG1 kappa) VH: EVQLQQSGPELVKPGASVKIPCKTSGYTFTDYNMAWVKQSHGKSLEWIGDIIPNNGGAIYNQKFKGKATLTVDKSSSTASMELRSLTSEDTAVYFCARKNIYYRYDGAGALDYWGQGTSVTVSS VL: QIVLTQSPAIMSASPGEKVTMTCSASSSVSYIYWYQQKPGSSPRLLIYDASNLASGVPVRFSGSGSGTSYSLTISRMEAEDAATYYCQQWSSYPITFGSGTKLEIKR
25%

Next: antibody 1042 (antibody, human IgG1, kappa, V domains shown, Chimeric IgG1 kappa; RA- left out of the VH entry) VH: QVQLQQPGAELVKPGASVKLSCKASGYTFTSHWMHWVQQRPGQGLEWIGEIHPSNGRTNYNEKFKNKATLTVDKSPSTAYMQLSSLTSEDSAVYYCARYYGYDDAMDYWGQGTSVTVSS VL: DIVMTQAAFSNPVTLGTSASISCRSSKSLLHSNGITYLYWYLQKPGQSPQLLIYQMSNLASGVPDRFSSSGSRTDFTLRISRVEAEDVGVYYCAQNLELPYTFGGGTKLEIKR
-7%

Next: antibody 1284 (antibody, human IgG1, kappa, V domains shown, Chimeric IgG1 kappa) VH: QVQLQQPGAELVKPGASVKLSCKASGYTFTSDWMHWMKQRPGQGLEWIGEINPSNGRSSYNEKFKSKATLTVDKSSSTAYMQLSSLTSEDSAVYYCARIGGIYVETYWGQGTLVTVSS VL: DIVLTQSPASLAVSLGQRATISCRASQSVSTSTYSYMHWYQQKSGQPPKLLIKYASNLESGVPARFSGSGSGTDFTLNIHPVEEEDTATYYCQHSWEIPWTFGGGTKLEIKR
31%
